assay: yeast display, Sf9 membrane polyspecificity reagent, FACS + sequencing; frameworks hold sequencing errors

- sequence: "QVQHEDSGGCLVQAAGSLSVSCAATGSTFDTYEMGRSRKATGKEMELVAAISSGGGTKYADSVKGRFKISRDNAKNTVYLQMNSLKPEDTAVYYCAADKAVGDSTRYYYWGQGTQVTVSS"
  polyreactivity (PSR sort gate): "low polyreactivity"
- sequence: "QVQLVESGGGLVQAGGSLRLSCAASGRTFTYNMGWYRQAPGKERELVAANDLRRLCEGALHNFTRQCDEYRLFTDEQPETGRYPVYYCNADPAWIWYTFDYWGQGTQVTVSS"
  polyreactivity (PSR sort gate): "low polyreactivity"
- sequence: "QVQLVESGGGLVQAGGSLRLSCAASGSTFFLYAMGWYRQAPGKERELVAAINYIGGTYYADSVKGRFTISRDNAKNTVYLQMNSLKPEDTAVYYCAASYVGTIAGMDYWGQGTQVTVSS"
  polyreactivity (PSR sort gate): "low polyreactivity"
- sequence: "QVHLVETVRGLLQAGGSLRISCAASGRSFKRYAMGWYRQAPGKERELVAAITRSGGSTYYADSVKGRFTISRDNAKNTVYLQMNSLKPEDTAVYYCATRSYNNELEYWGQGSQVTVSS"
  polyreactivity (PSR sort gate): "high polyreactivity"
- sequence: "QVQLVESGGGLVQAGGSLRLSCAASGIIQPRYAMGWYRQAPGKERELVAAISRGGGTYYADSVKGRFTISRDNAKNTVYLQMNSLIPEYSAVYNCASAYVFVGSSHYYWGQGTQVTVSS"
  polyreactivity (PSR sort gate): "high polyreactivity"

* * *

experiment: yeast display, Sf9 membrane polyspecificity reagent, FACS + sequencing; frameworks hold sequencing errors
quantity-name: polyreactivity (PSR sort gate)

- sequence: "QVQHVESGGGLVQAGGSLRLSCAASGRIFVPYAKGWYRQPPGKERELVADISLRGGTTYYADSVKGRFTISRDNAKNTVYLQMNSLKPEDTAVYYCAARGYVSVWRPYHWFVAGDYWGQGTQVTVSS"
  quantity-name: "polyreactivity (PSR sort gate)"
  reported-result: "high polyreactivity"
- sequence: "QVQLVESGGGLVQAGGSLRLSCAASGSIFKEYAMGWYRQAPGKERELVAAITGSGGSTFYADSVKGRFTISRDNAKNTVYLQMNSLIPEDTAVYYCNARRPAKSRYRHDYWGQGTQVTVSS"
  quantity-name: "polyreactivity (PSR sort gate)"
  reported-result: "high polyreactivity"
- sequence: "QVQLVESGGGLVQAGGSLRLSCAPSGRIVGKYVMGWDRQAPRKERELVAGICWSAGSTYYADSVKGRFTISRDNAKNTVYLQMNSLKPEDTAVYYCAAGLEGGSDYWGQGTQVTVSS"
  quantity-name: "polyreactivity (PSR sort gate)"
  reported-result: "low polyreactivity"
- sequence: "QVQLVESGGGLVQAGGSLRLSCAASGFTFFHYAMGWYRQAPGKERELVAAIDYSAGSTYYADSVKGRFTISRDNAKNTVYLQMNSMKPEDTAVYYCAADARTSRGRRYYYWGQGTQVTVSS"
  quantity-name: "polyreactivity (PSR sort gate)"
  reported-result: "low polyreactivity"
- sequence: "QVQLVESGGGLVQAGGSLRLSCAASGRIIVRNAMGWYRQAPGKERELVAAISGSGSRTYYADSVKGRFTISRDNAKNTVYLQMNSLNPEDTAVYYCAASGYWPFRSGFGYWGQGTQVTVSS"
  quantity-name: "polyreactivity (PSR sort gate)"
  reported-result: "high polyreactivity"
- sequence: "QVQLVESGGGLVQAGGSLRLSSAPSGRTFGVYAMGWYRQAPGKERELVAAISATGGSTYYADSVKGRFTISRDNAKNTVYLQMNSLKPEDTAVYYCARGGTTLYWGQGTQVTVSS"
  quantity-name: "polyreactivity (PSR sort gate)"
  reported-result: "high polyreactivity"
- sequence: "QVQLVESGGCLVQAGGSLRLSCAASGSLFKPYAMGWYIQAPGKEREFVAAINRGGTSTYYADSVKGRFTIARDNAKNTVFLQMKSLKPEDTAVYYCNAESPYYADGDTVRDDYWGQGTQVTVSS"
  quantity-name: "polyreactivity (PSR sort gate)"
  reported-result: "low polyreactivity"
- sequence: "QVQLVESGGGLVQAGGSLRLSCAASGRIFWGYAMGWYRQAPGKERELVARITSGGDTYYADSVKGRFTISRDNAKNTVYLQMNSLKPEDTAVYYCNADVGTEWDNYPEVDYWGQGTQVTVSS"
  quantity-name: "polyreactivity (PSR sort gate)"
  reported-result: "low polyreactivity"
- sequence: "QVQLLESGGGLVQAGGSLRLSCAASGSIFVINVMGWYRQAPRKDRELVATITGGRSTKYADSVNGRFTISRDNAKNTVYLQMNSLKPEDTAVYYCNIQSKSRGVHDPSGYDYWGQGTQVTVSS"
  quantity-name: "polyreactivity (PSR sort gate)"
  reported-result: "low polyreactivity"
- sequence: "KVQLVESGGGLVQAGGSLRLSCAASGSTFSTNAMGRYRQAPGKERELVAAISRTGGSTYYADSVKGRFTISRDNAKNNVYLPMNILKPEDTAVYYSARYSYRGTNVRFDYWGQGTQVTLSS"
  quantity-name: "polyreactivity (PSR sort gate)"
  reported-result: "high polyreactivity"
- sequence: "QVKLVESGGGLVQAGGSLRLSCAASGITIRFNAMGWYRQAPGKERELVPAITSSGGRTYYADSVKVRFTISRDNAKNTVYLQMNSLKPEDTAVYYCAAYYRYSTTEDRSVYRGYYYWGQGTQVTVSS"
  quantity-name: "polyreactivity (PSR sort gate)"
  reported-result: "high polyreactivity"
- sequence: "QVQLVESGGGLVQAGGSLRLSCAASGRIFEVYAMGWYRQAPGKERELVAAITSSGGSRTYYADSVKGRFTISRDNAKNTVYLQMNSLKPEDTAVYYCAASTHRGRYKRYDYWGQGTQVTVSS"
  quantity-name: "polyreactivity (PSR sort gate)"
  reported-result: "high polyreactivity"
- sequence: "QVQLVESGGGLVQAGGSLRLSCAASGRTFRYNVMGWYRQAPGKERELVAAITYSGGRTYYADSVKGRFTISRDNVKNTVYLQMNSLKPEDTAVYYCAALSAPGYGRYNYWGQGTQVTVSS"
  quantity-name: "polyreactivity (PSR sort gate)"
  reported-result: "high polyreactivity"
- sequence: "QVHLVESGGALVQAGGSLRLSCAASGRTFGIYAMGWYRQAPGKERELVATISWRGGSTYYADSVKGRFPISRDNAKNTVYLQMNSLKPEDTAVYYCAAGYYPYWGQGTQVTVSS"
  quantity-name: "polyreactivity (PSR sort gate)"
  reported-result: "low polyreactivity"
- sequence: "QVQLVESGGGLVQAGGSLRLSCAASGFIFYRNAMGWYRQAPGKERELVAAISQRGGRTYADSVKGRFTISRDNAKNTVYLQMNSLKPEDTAFYYCAADGARLSQTTRRFDYWGQGTQVTVSS"
  quantity-name: "polyreactivity (PSR sort gate)"
  reported-result: "low polyreactivity"
- sequence: "QVQLVESGGGLVKAGGSLRLSCAASGRTFGDNAMGWYRQAPGKERELVAAIRWGGGSTYYADSVKGRFTISRDNAKNTVYLQMNSLKPEDTAVYYCAKKGWSSHDRAWYIYDYWGQGSQVTVSS"
  quantity-name: "polyreactivity (PSR sort gate)"
  reported-result: "low polyreactivity"
- sequence: "QVQLVESGGGLVQAGGSLRLSCAASGFIFSSYGMGWYRQAPGKERELVADISGGGSTNYADSVKGRFTISRDNAKNTVYLQMNSLKPEDTAVYYCNAQLIRSAAYDYWGQGTQVTVSS"
  quantity-name: "polyreactivity (PSR sort gate)"
  reported-result: "low polyreactivity"
- sequence: "QVQLVESGGGLVQAGGSLRLSCAASGNIFYINTMGWYRQAPGKERELVAAIDASDGSTYYADSVKGRFTISRDNAKNSVYLQMYSLKPEDTAVYYCASRRGYDSVYYFYTLWYYYWGQGTQVTVSS"
  quantity-name: "polyreactivity (PSR sort gate)"
  reported-result: "low polyreactivity"
- sequence: "QVQLVESGGGLVQAGGSLRLSCAASGYIFRVYAMGWYRQAPGKERELVAAISSGGSTYYADSVKGRFTISRDNAKNTVYLQMNSLKPEDTAVYYCAKAGLALYAFRDDYWGQGTQVTVSS"
  quantity-name: "polyreactivity (PSR sort gate)"
  reported-result: "low polyreactivity"
- sequence: "QVQLVESGGGLVQAGGSLRLSCAASGRILKRNAMGWYRQSPGKERELVAAISWSTGTTYYADSVKGRFTISRDNAKNTVYLQMNSLKPEDTAVYYCAKQIVSGRRVDRNDYWGQGTQVTVSS"
  quantity-name: "polyreactivity (PSR sort gate)"
  reported-result: "low polyreactivity"
- sequence: "QVQLVESGGGLVQAGGSLRLSCAASGFTLENYAMGWYRQAPGKARELVAAINCRGSRTYYADSVKGRFTISRDNAMNTVYLQMNSLKPEDTAVYYCARDKRTNSGFYYWGQGTQVTVSS"
  quantity-name: "polyreactivity (PSR sort gate)"
  reported-result: "high polyreactivity"
